Cited source: patent US20050148495A1

assay: in vivo; conditions: both, Sprague-Dawley, rat, plasma, iv, 0.2 mg/kg, Vss (volume of distribution at steady state), non-labeled XMP.629, 0.2 mg/kg intravenous, mean
Non-standard residues stand in square brackets, D forms with d. Residues, ends and D or L forms follow the SMILES beside them. d1Nal = N[C@H](Cc1cccc2ccccc12)C(=O)O
Observable: Vd (L/kg)
Report the figure in L/kg without appending any unit label.

*Q* State, in one line, measured Vd of CC(C)C[C@@H](NC(=O)[C@H](N)CCCCN)C(=O)N[C@H](Cc1ccccc1)C(=O)N[C@H](CCCNC(=N)N)C(=O)N[C@H](Cc1cccc2ccccc12)C(=O)N[C@H](CCC(N)=O)C(=O)N[C@H](C)C(=O)N[C@H](CCCCN)C(=O)N[C@H](Cc1cccc2ccccc12)C(N)=O [XMP.629] (H-[dK][dL][dF][dR][d1Nal][dQ][dA][dK][d1Nal]-NH2)
*A* 2.25
